Where do these numbers come from? They come from paper PMC11206988.

# Measurement description: Transport of baicalin across MDCK II-WT cell monolayer (transwell)
# Assay type: in vitro ADME
# Condition info: dog, MDCK, pH 7.4, MDCK II-WT; 100 μM BG + 0.5% PEG400
# Method: The cells were inoculated at a density of 0.5 mL (1 × 10^5) in the upper layer of the transwell plate (AP side), and the culture was changed daily after the lower layer was added with 1.5 mL of complete medium without cells every other day. […] The electrical resistance of the cell monolayer compartments was measured with a resistivity meter (TEER), and the integrity of the cell monolayer was monitored using TEER. […]
Reported metric: Papp A→B at 120 min, 100 μM (×10⁻⁶ cm/s)
Write the value in ×10⁻⁶ cm/s as a bare number.

[in] Identify measured Papp A→B at 120 min, 100 μM corresponding to O=C(O)[C@H]1O[C@@H](Oc2cc3oc(-c4ccccc4)cc(=O)c3c(O)c2O)[C@H](O)[C@@H](O)[C@@H]1O [BG, Baicalein-7-O-β-D-glucuronide]
[out] 5.24

====

# Measurement target: MRP2 (Homo sapiens)
# Construct: expressed in transfected cells; host or cells: MDCK II
# Sequence (Q92887 whole entry): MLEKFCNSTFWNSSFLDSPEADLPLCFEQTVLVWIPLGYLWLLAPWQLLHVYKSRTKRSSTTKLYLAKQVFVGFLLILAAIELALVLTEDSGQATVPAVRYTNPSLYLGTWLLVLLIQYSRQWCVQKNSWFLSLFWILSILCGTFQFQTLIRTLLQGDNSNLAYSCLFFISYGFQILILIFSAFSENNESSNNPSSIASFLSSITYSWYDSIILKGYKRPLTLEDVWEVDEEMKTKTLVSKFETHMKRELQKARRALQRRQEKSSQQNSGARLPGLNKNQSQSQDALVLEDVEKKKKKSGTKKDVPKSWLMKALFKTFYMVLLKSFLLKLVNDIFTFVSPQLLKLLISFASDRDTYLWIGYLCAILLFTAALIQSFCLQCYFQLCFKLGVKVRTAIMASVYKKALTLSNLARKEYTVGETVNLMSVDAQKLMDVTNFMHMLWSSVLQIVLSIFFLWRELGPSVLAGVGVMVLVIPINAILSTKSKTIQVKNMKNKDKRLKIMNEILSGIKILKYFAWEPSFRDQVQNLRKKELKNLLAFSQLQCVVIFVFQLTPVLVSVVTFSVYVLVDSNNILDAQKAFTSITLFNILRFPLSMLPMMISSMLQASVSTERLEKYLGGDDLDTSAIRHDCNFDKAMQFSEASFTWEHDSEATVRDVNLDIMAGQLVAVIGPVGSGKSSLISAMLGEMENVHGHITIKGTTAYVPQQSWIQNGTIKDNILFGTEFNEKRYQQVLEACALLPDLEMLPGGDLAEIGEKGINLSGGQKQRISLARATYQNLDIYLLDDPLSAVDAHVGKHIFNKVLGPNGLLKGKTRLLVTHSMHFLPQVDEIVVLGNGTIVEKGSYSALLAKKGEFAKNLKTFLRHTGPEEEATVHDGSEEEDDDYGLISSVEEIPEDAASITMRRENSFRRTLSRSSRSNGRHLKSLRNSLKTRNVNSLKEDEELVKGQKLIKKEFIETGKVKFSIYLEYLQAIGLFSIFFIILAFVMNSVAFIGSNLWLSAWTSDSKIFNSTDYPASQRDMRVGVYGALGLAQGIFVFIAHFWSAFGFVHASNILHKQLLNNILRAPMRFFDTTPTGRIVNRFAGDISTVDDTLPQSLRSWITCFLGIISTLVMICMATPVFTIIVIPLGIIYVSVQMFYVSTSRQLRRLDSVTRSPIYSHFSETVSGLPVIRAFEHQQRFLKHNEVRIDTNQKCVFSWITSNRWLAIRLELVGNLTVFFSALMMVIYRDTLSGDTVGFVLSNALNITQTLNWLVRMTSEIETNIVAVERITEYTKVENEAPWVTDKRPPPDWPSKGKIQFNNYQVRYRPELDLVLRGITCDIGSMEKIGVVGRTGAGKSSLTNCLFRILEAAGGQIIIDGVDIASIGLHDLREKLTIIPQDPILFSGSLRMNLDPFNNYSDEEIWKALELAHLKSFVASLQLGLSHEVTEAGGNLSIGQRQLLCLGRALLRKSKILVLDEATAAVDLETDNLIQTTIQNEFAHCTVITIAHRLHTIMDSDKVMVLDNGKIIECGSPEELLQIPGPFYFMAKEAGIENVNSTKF
# Measurement description: Transport of baicalin across MDCK II-MRP2 cell monolayer (transwell)
# Assay type: in vitro ADME
# Condition info: pH 7.4, MDCK II-MRP2, 100 μM BG + 0.5% PEG400
Reported metric: Papp A→B at 120 min, 100 μM (×10⁻⁶ cm/s)
Write the value in ×10⁻⁶ cm/s as a bare number.

[in] Specify the recorded Papp A→B at 120 min, 100 μM for O=C(O)[C@H]1O[C@@H](Oc2cc3oc(-c4ccccc4)cc(=O)c3c(O)c2O)[C@H](O)[C@@H](O)[C@@H]1O [BG, Baicalein-7-O-β-D-glucuronide] , system: MRP2 (Homo sapiens).
[out] 2.51

====

# Measurement target: MRP2 (Homo sapiens)
# Construct: expressed in transfected cells; host or cells: MDCK II
# Measurement description: Transport of baicalin across MDCK II-MRP2 cell monolayer (transwell)
# Assay type: in vitro ADME
# Condition info: pH 7.4, MDCK II-MRP2, 100 μM BG alone, read-out: ER
Reported metric: efflux ratio at 120 min, 100 μM
// keep it numeric: no unit symbol after the value

[in] Identify measured efflux ratio at 120 min, 100 μM corresponding to O=C(O)[C@H]1O[C@@H](Oc2cc3oc(-c4ccccc4)cc(=O)c3c(O)c2O)[C@H](O)[C@@H](O)[C@@H]1O [BG, Baicalein-7-O-β-D-glucuronide]
[out] 2.45

====

# Measurement description: Transport of baicalin across MDCK II-WT cell monolayer (transwell)
# Type: in vitro ADME
# Condition info: dog, MDCK, pH 7.4, MDCK II-WT; 100 μM BG + 0.5% PEG400; read-out: ER
Reported metric: efflux ratio at 120 min, 100 μM
// keep it numeric: no unit symbol after the value

[in] Identify measured efflux ratio at 120 min, 100 μM corresponding to O=C(O)[C@H]1O[C@@H](Oc2cc3oc(-c4ccccc4)cc(=O)c3c(O)c2O)[C@H](O)[C@@H](O)[C@@H]1O [BG, Baicalein-7-O-β-D-glucuronide]
[out] 1.53

====

# Measurement target: BCRP (Homo sapiens, UniProt Q9UNQ0)
# Construct: expressed in transfected cells; host or cells: MDCK II
# Sequence (Q9UNQ0 whole entry): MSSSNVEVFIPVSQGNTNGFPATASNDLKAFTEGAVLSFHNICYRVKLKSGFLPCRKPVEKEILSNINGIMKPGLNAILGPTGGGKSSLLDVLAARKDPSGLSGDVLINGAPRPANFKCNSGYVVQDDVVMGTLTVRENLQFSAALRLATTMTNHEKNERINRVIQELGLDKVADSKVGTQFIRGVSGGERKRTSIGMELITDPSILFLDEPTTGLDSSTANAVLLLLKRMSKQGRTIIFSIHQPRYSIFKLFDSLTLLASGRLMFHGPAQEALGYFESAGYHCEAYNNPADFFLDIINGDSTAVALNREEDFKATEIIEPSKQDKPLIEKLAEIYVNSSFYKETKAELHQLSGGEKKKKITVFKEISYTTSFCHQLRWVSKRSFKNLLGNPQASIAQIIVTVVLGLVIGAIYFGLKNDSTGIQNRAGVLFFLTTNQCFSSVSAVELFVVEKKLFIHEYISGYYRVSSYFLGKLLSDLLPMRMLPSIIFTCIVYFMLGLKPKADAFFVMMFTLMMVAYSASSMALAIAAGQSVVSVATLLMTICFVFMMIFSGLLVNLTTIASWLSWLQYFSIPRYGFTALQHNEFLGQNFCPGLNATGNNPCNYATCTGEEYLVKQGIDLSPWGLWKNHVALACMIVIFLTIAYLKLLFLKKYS
# Measurement description: Transport of baicalin across MDCK II-BCRP cell monolayer (transwell)
# Format: in vitro ADME
# Condition info: pH 7.4, MDCK II-BCRP, 100 μM BG + 0.25% PEG400, read-out: ER
Reported metric: efflux ratio at 120 min, 100 μM
// keep it numeric: no unit symbol after the value

[in] Identify measured efflux ratio at 120 min, 100 μM corresponding to O=C(O)[C@H]1O[C@@H](Oc2cc3oc(-c4ccccc4)cc(=O)c3c(O)c2O)[C@H](O)[C@@H](O)[C@@H]1O [BG, Baicalein-7-O-β-D-glucuronide]
[out] 1.59
